- condition_label: 325.66 K; 101.33 kPa; Liquid; Pulse-echo method
measurement_type: speed of sound (m/s)

{"compound": "CCCCC(=O)[O-].C[NH2+]CCO [2-hydroxy-N-methylethanaminium pentanoate]", "speed of sound, m/s": 1463.9}
{"compound": "C[NH2+]CCO.O=C[O-] [2-hydroxy-N-methylethanaminium formate]", "speed of sound, m/s": 1761.9}
{"compound": "CCCC(=O)[O-].C[NH2+]CCO [N-methyl-2-hydroxyethylammonium butanoate]", "speed of sound, m/s": 1528.4}
{"compound": "CC(C)C(=O)[O-].C[NH2+]CCO [2-hydroxy-N-methylethanaminium isobutyrate]", "speed of sound, m/s": 1533.5}
{"compound": "CCC(=O)[O-].C[NH2+]CCO [2-hydroxy-N-methylethanaminium propionate]", "speed of sound, m/s": 1608.4}

====

- condition_label: 319.41 K; 101.33 kPa; Liquid; Pulse-echo method
measurement_type: speed of sound (m/s)

{"compound": "CCCC(=O)[O-].C[NH2+]CCO [N-methyl-2-hydroxyethylammonium butanoate]", "unit_descriptor": "m/s", "reported_value": 1548}
{"compound": "CC(C)C(=O)[O-].C[NH2+]CCO [2-hydroxy-N-methylethanaminium isobutyrate]", "unit_descriptor": "m/s", "reported_value": 1551.3}
{"compound": "C[NH2+]CCO.O=C[O-] [2-hydroxy-N-methylethanaminium formate]", "unit_descriptor": "m/s", "reported_value": 1773.9}
{"compound": "CCC(=O)[O-].C[NH2+]CCO [2-hydroxy-N-methylethanaminium propionate]", "unit_descriptor": "m/s", "reported_value": 1627.2}
{"compound": "CCCCC(=O)[O-].C[NH2+]CCO [2-hydroxy-N-methylethanaminium pentanoate]", "unit_descriptor": "m/s", "reported_value": 1483.1}

====

- condition_label: 333.16 K; 101.33 kPa; Liquid; Vibrating tube method
measurement_type: mass density (kg/m3)

{"compound": "C[NH2+]CCO.O=C[O-] [2-hydroxy-N-methylethanaminium formate]", "mass density [kg/m3]": 1108.95}
{"compound": "CC(=O)[O-].C[NH2+]CCO [N-methyl-2-hydroxyethylammonium acetate]", "mass density [kg/m3]": 1079.34}
{"compound": "CCCC(=O)[O-].C[NH2+]CCO [N-methyl-2-hydroxyethylammonium butanoate]", "mass density [kg/m3]": 1015.25}
{"compound": "CC(C)C(=O)[O-].C[NH2+]CCO [2-hydroxy-N-methylethanaminium isobutyrate]", "mass density [kg/m3]": 1020.27}
{"compound": "CCCCC(=O)[O-].C[NH2+]CCO [2-hydroxy-N-methylethanaminium pentanoate]", "mass density [kg/m3]": 992.239}
{"compound": "CCC(=O)[O-].C[NH2+]CCO [2-hydroxy-N-methylethanaminium propionate]", "mass density [kg/m3]": 1048.02}

====

- condition_label: 310.91 K; 101.33 kPa; Liquid; Pulse-echo method
measurement_type: speed of sound (m/s)

{"molecule": "CC(C)C(=O)[O-].C[NH2+]CCO [2-hydroxy-N-methylethanaminium isobutyrate]", "measurement_type": "speed of sound", "reported_value": 1575.3}
{"molecule": "CCC(=O)[O-].C[NH2+]CCO [2-hydroxy-N-methylethanaminium propionate]", "measurement_type": "speed of sound", "reported_value": 1652.4}
{"molecule": "C[NH2+]CCO.O=C[O-] [2-hydroxy-N-methylethanaminium formate]", "measurement_type": "speed of sound", "reported_value": 1790.5}
{"molecule": "CCCCC(=O)[O-].C[NH2+]CCO [2-hydroxy-N-methylethanaminium pentanoate]", "measurement_type": "speed of sound", "reported_value": 1509.1}
{"molecule": "CCCC(=O)[O-].C[NH2+]CCO [N-methyl-2-hydroxyethylammonium butanoate]", "measurement_type": "speed of sound", "reported_value": 1574.5}
